Entries annotated with measured NanoBRET Fold Response
# assay system: F2RL1 (Homo sapiens, UniProt P55085)
# Construct: purchased Promega (in-house HiBiT-GPCR construct library, NanoBRET)
# Sequence (P55085 26-397): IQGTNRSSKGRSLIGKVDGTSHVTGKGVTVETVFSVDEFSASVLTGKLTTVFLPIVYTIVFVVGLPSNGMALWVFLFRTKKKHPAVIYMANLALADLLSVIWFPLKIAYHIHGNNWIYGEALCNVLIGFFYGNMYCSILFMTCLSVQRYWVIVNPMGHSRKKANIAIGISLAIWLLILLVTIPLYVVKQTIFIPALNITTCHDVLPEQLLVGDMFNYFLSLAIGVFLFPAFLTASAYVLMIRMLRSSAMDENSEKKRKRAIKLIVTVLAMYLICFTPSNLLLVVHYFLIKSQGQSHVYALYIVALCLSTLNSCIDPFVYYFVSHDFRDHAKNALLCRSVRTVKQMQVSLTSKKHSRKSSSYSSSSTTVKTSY
# assay summary: NanoBRET screen HiBiT-F2RL1 in HEK293
# Format: binding
# recorded conditions: F2RL1; tracer 1μM

The following compounds have reported results that may help.
# compound, NanoBRET Fold Response
records = [
    ("Cc1nc2n(c(=O)c1CCN1CCC(c3noc4cc(F)ccc34)CC1)CCCC2OC(=O)NCCOCCOCCOCCOCCNC(=O)CCc1ccc2n1[B-](F)(F)[N+]1=C(c3ccc[nH]3)C=CC1=C2 (centres unmarked) [Risperidone-2-NB590]", 0.94),
    ("COc1ccccc1N1CCN(CCCCN2C(=O)c3ccc(CNC(=O)CCOCCNC(=O)c4ccc(CNC(=O)CCc5ccc6n5[B-](F)(F)[N+]5=C(c7ccc[nH]7)C=CC5=C6)cc4)cc3C2=O)CC1 [NAN-190-3-NB590]", 1.08),
    ("O=C(CCc1ccc2n1[B-](F)(F)[N+]1=C(c3ccc[nH]3)C=CC1=C2)NCc1ccc(C(=O)NCCOCCC(=O)N[C@@H]2CC[C@@]3(O)[C@H]4Cc5ccc(O)c6c5[C@@]3(CCN4CC3CC3)[C@H]2O6)cc1 [Naltrexone-3-NB590]", 0.91),
    ("CCCn1c(=O)c2[nH]c(-c3ccc(OCC(=O)NCCNC(=O)CCOCCNC(=O)c4ccc(CNC(=O)CCc5ccc6n5[B-](F)(F)[N+]5=C(c7ccc[nH]7)C=CC5=C6)cc4)cc3)nc2n(CCC)c1=O [XAC-3-NB590]", 0.97),
    ("O=C(CCOCCOCCOCCOCCNC(=O)CCc1ccc2n1[B-](F)(F)[N+]1=C(c3ccc[nH]3)C=CC1=C2)NCCCN1CCN(C2=Nc3ccccc3Oc3ccc(Cl)cc32)CC1 [Loxapine-a-2-NB590]", 1.14),
    ("Cc1cc2c(s1)Nc1ccccc1N=C2N1CCN(CCCNC(=O)CCOCCOCCOCCOCCNC(=O)CCc2ccc3n2[B-](F)(F)[N+]2=C(c4ccc[nH]4)C=CC2=C3)CC1 [Olanzapine-a-2-NB590]", 0.96),
    ("COc1ccccc1N1CCN(CCCCN2C(=O)c3ccc(CNC(=O)CCOCCOCCOCCOCCNC(=O)CCc4ccc5n4[B-](F)(F)[N+]4=C(c6ccc[nH]6)C=CC4=C5)cc3C2=O)CC1 [NAN-190-2-NB590]", 0.98),
]

Now, please, on to the next compound.
Here N#CN=C(NCCCOc1cccc(CN2CCCCC2)c1)NCCNC(=O)CCOCCOCCOCCOCCNC(=O)CCc1ccc2n1[B-](F)(F)[N+]1=C(c3ccc[nH]3)C=CC1=C2 [Aminopotentidine-2-NB590] was tested on F2RL1 (Homo sapiens, UniProt P55085), and its NanoBRET Fold Response came to 0.99

----------
Reported values of NanoBRET Fold Response for individual entries
# assay system: CCKBR (Homo sapiens, UniProt P32239)
# Construct: purchased Promega (in-house HiBiT-GPCR construct library, NanoBRET)
# Sequence (P32239 whole entry): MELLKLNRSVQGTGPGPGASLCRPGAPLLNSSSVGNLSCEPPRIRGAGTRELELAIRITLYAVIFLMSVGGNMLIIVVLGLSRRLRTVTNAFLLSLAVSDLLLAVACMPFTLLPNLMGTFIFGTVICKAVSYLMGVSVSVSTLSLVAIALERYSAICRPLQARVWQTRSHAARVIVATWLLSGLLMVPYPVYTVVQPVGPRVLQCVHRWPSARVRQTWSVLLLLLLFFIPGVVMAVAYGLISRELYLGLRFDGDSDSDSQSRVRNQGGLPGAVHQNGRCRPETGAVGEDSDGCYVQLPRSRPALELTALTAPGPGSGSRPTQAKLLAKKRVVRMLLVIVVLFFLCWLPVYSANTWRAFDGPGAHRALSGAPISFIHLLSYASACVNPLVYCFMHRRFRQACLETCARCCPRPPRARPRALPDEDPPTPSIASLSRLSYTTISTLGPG
# assay summary: NanoBRET screen HiBiT-CCKBR in HEK293
# Assay type: binding
# recorded conditions: CCKBR; tracer 1μM
# Method: Each tracer candidate was screened across the entire library of HiBiT-GPCR constructs using NanoBRET as the detection modality. As depicted in Figure 4A, the specificity of interactions was evaluated through decrease in BRET due to competitive displacement of a bound tracer by excess parental compound. Each tracer was analyzed for binding to each HiBiT-GPCR fusion in the absence and in the presence of competing parental compound. […]

Example results:
# compound smiles, value measured
measured = [
    ("Cc1cc2c(s1)Nc1ccccc1N=C2N1CCN(CCCNC(=O)CCOCCOCCOCCOCCNC(=O)CCc2ccc3n2[B-](F)(F)[N+]2=C(c4ccc[nH]4)C=CC2=C3)CC1", 0.89),
    ("CC(C)N(CC[C@H](c1ccccc1)c1cc(CCNC(=O)CCOCCOCCOCCOCCNC(=O)CCc2ccc3n2[B-](F)(F)[N+]2=C(c4ccc[nH]4)C=CC2=C3)ccc1O)C(C)C", 1.07),
]

With those in mind, consider the next compound.
Quick note, NanoBRET Fold Response for O=C(CCc1ccc2n1[B-](F)(F)[N+]1=C(c3ccc[nH]3)C=CC1=C2)NCCOCCOCCNC(=O)OCCOCCN1CCN(C2=Nc3ccccc3Sc3ccccc32)CC1 landed at 0.93
